Assay: Drug metabolism in rat skin homogenate assessed as compound remaining after 4 hrs by HPLC analysis
Format: ADME, tissue-based, Zone of skin
Conditions: read-out: Drug metabolism
RESULT_TYPE: remaining at 4 h (%)
Just the number in %, nothing appended.

Query block: For the compound `CCC(=O)O[C@]1(C(=O)CO)CC[C@H]2[C@@H]3CCC4=CC(=O)CC[C@]4(C)[C@H]3CC[C@@]21C` , what remaining at 4 h is on record?
Result block: 59.5

---

Target: Androgen receptor (Homo sapiens, UniProt P10275)
Sequence (P10275 whole entry): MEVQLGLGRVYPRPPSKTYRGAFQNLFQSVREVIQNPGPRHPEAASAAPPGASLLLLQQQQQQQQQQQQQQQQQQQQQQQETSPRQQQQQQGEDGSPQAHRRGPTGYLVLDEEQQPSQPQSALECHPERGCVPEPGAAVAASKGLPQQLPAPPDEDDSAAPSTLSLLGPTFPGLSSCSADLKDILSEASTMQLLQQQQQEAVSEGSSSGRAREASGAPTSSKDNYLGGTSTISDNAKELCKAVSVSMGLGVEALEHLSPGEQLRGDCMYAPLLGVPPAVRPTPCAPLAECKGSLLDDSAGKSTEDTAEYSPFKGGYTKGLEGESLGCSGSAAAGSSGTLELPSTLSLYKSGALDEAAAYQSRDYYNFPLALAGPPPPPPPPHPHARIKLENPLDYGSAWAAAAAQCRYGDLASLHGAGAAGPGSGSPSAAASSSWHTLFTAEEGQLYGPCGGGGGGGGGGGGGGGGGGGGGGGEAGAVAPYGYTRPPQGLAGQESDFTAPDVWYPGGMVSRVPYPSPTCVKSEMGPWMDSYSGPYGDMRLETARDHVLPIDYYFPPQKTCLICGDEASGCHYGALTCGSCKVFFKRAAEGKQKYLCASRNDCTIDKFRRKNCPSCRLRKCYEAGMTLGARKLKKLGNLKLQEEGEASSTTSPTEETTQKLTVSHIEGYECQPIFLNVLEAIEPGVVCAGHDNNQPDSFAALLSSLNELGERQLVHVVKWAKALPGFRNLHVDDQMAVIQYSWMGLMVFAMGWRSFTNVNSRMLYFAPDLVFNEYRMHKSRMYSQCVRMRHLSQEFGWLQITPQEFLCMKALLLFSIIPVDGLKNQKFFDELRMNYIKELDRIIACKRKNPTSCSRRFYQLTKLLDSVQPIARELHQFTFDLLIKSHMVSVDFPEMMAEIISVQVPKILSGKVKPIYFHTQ
Test: Displacement of [3H]methyltrienolone from androgen receptor in human prostate cancer cells
RESULT_TYPE: pKi
The quantity pKi is defined as the negative base-10 logarithm of the molar concentration.

Query block: GET /values?readout=pKi&item= `CCC(=O)O[C@]1(C(=O)CO)CC[C@H]2[C@@H]3CCC4=CC(=O)CC[C@]4(C)[C@H]3CC[C@@]21C`
Result block: 7.40
